# Tgt: Histone deacetylase 1 (Homo sapiens)
# Sequence (Q13547 whole entry): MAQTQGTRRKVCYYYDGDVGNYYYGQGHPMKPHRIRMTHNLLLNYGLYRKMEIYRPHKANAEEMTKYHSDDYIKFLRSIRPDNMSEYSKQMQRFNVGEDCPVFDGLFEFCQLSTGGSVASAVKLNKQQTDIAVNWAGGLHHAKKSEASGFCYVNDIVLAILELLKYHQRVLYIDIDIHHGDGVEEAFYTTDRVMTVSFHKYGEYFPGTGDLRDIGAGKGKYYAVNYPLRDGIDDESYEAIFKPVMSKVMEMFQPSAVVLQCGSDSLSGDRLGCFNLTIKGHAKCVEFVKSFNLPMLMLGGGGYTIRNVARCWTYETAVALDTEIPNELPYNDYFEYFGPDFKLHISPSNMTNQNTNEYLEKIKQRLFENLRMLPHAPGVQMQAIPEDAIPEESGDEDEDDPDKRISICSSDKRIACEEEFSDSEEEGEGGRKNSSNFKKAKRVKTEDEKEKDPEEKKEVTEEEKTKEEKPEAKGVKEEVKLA
# Procedure Details: Inhibition of human recombinant HDAC1
pIC50: −log10 of the molar value.
Label criterion not met if pIC50 falls below 5; label criterion met in every other case.

Incoming: Is reported pIC50 greater than or equal to 5 here: Nc1ccccc1NC(=O)CCCCC[C@@H]1NC(=O)[C@H]2CCCN2C(=O)[C@H](Cc2ccccc2)NC(=O)[C@H](Cc2ccccc2)NC1=O
Outgoing: criterion not met

Incoming: Is reported pIC50 greater than or equal to 5 here: Nc1ccccc1NC(=O)CCCCC[C@H](NC(=O)[C@H]1CCCN1C(=O)[C@@H](N)Cc1ccccc1)C(=O)N[C@@H](Cc1ccccc1)C(=O)O
Outgoing: criterion not met

Incoming: Is reported pIC50 greater than or equal to 5 here: Cc1ccc(C(=O)NCC(=O)NCCC(=O)Nc2ccccc2N)cc1
Outgoing: criterion not met

Incoming: Is reported pIC50 greater than or equal to 5 here: N=C(N)NCCC[C@H](N)C(=O)NCC(=O)N[C@@H](CCCCCC(=O)Nc1ccccc1N)C(=O)Nc1ccccc1N
Outgoing: criterion met
